Target: T1, cynomolgus monkey latent myostatin (cynomolgus monkey, UniProt Q95J86 25-266; Q95J86 267-375, limits assumed)
T1 construct: also called cyno latent myostatin
T1 sequence 1: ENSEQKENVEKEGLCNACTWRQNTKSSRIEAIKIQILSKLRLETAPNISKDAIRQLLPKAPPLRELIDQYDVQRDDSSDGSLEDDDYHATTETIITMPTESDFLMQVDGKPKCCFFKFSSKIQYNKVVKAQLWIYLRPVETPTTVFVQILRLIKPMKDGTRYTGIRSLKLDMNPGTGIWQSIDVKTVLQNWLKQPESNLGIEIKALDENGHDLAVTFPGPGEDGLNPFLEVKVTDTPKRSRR
T1 sequence 2: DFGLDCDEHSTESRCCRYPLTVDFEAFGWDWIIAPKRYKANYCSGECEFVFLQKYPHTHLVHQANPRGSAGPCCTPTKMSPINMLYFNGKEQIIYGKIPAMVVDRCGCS
Experiment: SPR 37C pH7.4; pH 7.4
Here the recorded Kd is given for each entry.
Return type: number; implicit unit pM.

Before answering, review these 2 worked examples.
>  <binder>
MS_M103240H1246-SG1/M103202L1045-SK1 (antibody, human IgG1, kappa, V domains shown, also called MS1032LO25-SG1) VH: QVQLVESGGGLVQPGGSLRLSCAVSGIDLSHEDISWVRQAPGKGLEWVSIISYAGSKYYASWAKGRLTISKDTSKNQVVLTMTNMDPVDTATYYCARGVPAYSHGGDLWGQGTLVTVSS VL: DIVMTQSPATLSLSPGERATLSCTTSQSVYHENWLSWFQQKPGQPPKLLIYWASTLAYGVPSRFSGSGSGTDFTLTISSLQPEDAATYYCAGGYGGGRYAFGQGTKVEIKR

>  <Kd / pM>
340

$$$$
>  <binder>
MS_M103245H1233-SG1/M103202L1045-SK1 (antibody, human IgG1, kappa, V domains shown, also called MS1032LO23-SG1) VH: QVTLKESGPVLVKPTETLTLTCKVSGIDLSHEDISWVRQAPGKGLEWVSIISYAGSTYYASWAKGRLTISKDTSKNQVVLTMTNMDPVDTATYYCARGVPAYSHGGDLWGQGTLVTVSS VL: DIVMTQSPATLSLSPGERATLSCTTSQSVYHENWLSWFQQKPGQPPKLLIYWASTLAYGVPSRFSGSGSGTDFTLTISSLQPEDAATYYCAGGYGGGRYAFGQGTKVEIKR

>  <Kd / pM>
299

$$$$

Switching to the query record.
Field Kd (entry MS_M103205H1004-SG1/M103202L889-SK1 (antibody, human IgG1, kappa, V domains shown, also called MS1032LO07-SG1) VH: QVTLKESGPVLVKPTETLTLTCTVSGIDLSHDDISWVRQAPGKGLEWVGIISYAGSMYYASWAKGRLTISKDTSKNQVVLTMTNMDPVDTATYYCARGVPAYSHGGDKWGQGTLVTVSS VL: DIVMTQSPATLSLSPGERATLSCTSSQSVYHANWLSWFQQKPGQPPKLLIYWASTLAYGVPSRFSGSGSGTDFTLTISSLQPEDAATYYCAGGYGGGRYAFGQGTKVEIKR ) reads 339

Each recorded value in this set is attributed to patent EP4755449A2.
